Tested on: HCT116 WT cells
protocol-notes: HCT116 proliferation assay, WT cells (CellTiter-Glo, 6 days)
Type: cell-based
condition-notes: Homo sapiens, HCT-116, 144 h, read-out: Prolif_HCT116-WT IC50
assay-readout: IC50 (µM)
I only need the number, in µM, no unit after it.

Write down IC50 measured for item Cc1cc2cc(C(=O)N(Cc3ccc(C(F)(F)F)cn3)Cc3ncccc3C)ccc2nc1N
2.83

Write down IC50 measured for item Cc1cc(N)nc2ccc(C(=O)N(Cc3ccc(C(F)(F)F)cn3)Cc3ccn(C)n3)cc12
1.43

Write down IC50 measured for item Cc1cc([C@@H](C)N(Cc2ccc(C(F)(F)F)cn2)C(=O)c2ccc3nc(N)c(C)cc3c2)no1
6.86

Further cases:
Write down IC50 measured for item Cc1cc2cc(C(=O)N(Cc3ccc(C(F)(F)F)cn3)[C@H](C)c3ccc(Cl)cn3)ccc2nc1N
3.68

====

Test system: HCT116 WT cells
protocol-notes: HCT116 proliferation assay, WT cells (CellTiter-Glo, 6 days)
Assay type: cell-based
condition-notes: Homo sapiens, HCT-116, 144 h, read-out: Prolif_HCT116-WT IC50
# pIC50 per entry
pIC50 here: minus log base 10 of the concentration, concentration in moles per litre.

Write pIC50 of C[C@H](c1ncccc1F)N(Cc1ccc(Br)nn1)C(=O)c1cnc2nc(N)c(Br)cc2c1 ; system used: HCT116 WT cells
5.04

Please examine the following record next.
Write pIC50 of N#CC[C@@H](C1CC1)N(Cc1ccc(C(F)(F)F)cn1)C(=O)c1ccc2nc(N)c(Br)cc2c1 ; system used: HCT116 WT cells
5.69

====

target-or-system: PRMT5/MEP50 (Homo sapiens, UniProt O14744)
Sequence (O14744 whole entry): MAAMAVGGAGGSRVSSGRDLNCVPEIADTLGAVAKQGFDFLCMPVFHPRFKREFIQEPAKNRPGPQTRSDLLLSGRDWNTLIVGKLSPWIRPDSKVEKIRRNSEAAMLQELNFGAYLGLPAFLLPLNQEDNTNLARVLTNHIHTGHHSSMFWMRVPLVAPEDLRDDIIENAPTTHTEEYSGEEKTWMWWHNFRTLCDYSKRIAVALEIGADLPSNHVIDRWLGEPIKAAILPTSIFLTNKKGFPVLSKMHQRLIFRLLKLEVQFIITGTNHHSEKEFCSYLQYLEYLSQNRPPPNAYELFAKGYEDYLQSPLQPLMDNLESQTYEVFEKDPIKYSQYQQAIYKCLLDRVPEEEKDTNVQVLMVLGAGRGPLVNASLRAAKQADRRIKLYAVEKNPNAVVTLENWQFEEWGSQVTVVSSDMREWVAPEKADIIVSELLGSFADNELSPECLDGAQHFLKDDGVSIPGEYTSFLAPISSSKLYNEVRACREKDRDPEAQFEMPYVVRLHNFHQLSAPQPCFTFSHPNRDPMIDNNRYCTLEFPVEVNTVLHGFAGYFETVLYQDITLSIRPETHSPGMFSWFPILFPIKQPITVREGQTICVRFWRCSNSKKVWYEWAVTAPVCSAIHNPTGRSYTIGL
Sequence (Q9BQA1 whole entry partner): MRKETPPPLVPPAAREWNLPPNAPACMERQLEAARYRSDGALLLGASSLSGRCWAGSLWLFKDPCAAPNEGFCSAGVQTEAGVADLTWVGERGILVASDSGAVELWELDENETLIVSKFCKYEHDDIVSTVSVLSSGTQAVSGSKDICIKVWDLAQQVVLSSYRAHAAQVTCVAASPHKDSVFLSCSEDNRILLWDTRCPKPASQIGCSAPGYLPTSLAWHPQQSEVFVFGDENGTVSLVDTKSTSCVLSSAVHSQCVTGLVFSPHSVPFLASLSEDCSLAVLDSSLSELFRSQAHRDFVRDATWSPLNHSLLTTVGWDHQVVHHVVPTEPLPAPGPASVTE
protocol-notes: MTase-Glo methyl transferase assay, Method A (Histone H4 peptide, 1 µM MTA, 24 h pre-incubation)
Format: biochemical
Set-up: made in house
condition-notes: read-out: PRMT5 MTase Glo Ki (nM, Meth. A)
# Ki per entry
I only need the number, in nM, no unit after it.

Worked set:
Write down Ki measured for item Cc1cc2cc(C(=O)N(Cc3ccc(C4=CCCOC4)cn3)[C@H](C)c3ncccn3)ccc2nc1N [Example 558]
0.08

Write down Ki measured for item C[C@H](c1ncccn1)N(Cc1ccc(Cl)cn1)C(=O)c1ccc2nc(N)c(Br)cc2c1 [Example 412]
0.18

Write down Ki measured for item [2H]C([2H])([2H])Oc1ccc(CN(C(=O)c2ccc3nc(N)c(C)cc3c2)[C@H](C)c2ncccn2)nc1 (single isomer, unassigned) [Example 493]
0.26

Further cases:
Write down Ki measured for item Cc1cc2cc(C(=O)N(Cc3ccc(S(=O)(=O)C4CC4)cn3)[C@H](C)c3ncccc3F)ccc2nc1N [Example 540]
0.17

====

Tested on: HCT116 WT cells
protocol-notes: HCT116 proliferation assay, WT cells (CellTiter-Glo, 6 days)
Assay type: cell-based
condition-notes: Homo sapiens, HCT-116, 144 h, read-out: Prolif_HCT116-WT IC50
assay-readout: IC50

Worked set:
Write down IC50 measured for item Cc1cc2cc(C(=O)N(Cc3ccc(C(F)(F)F)cn3)[C@H](C)c3cccc(F)n3)ccc2nc1N
301 nM

Write down IC50 measured for item Nc1nc2ccc(C(=O)N(Cc3ccc(Br)nn3)[C@@H]3CCCn4ncnc43)cc2cc1Br
> 10000 nM

Write down IC50 measured for item COc1ccc(CN(C(=O)c2ccc3nc(N)c(C)cc3c2)C(C)c2ncn(C)n2)nn1 (stereo not shown)
5950 nM

Write down IC50 measured for item COC(=O)N1CC=C(c2ccc(CN(C(=O)c3ccc4nc(N)c(C)cc4c3)[C@H](C)c3ncccn3)nc2)CC1
634 nM

Write down IC50 measured for item Nc1nc2ncc(C(=O)N(Cc3ccc(C(F)(F)F)cn3)[C@@H](c3ncccn3)C3CC3)cc2cc1Br
1370 nM

Further cases:
Write down IC50 measured for item Cc1cc2cc(C(=O)N(Cc3ccc(C(F)(F)F)cn3)CC(O)C(F)(F)F)ccc2nc1N (stereo not shown)
> 1000 nM

Write down IC50 measured for item Cc1cc2cc(C(=O)N(Cc3ccc(N(C)C)nn3)[C@H](C)c3ncccn3)ccc2nc1N
4280 nM
